Provenance of the data: patent US20150099800A1

- target: hDAGLα (Homo sapiens, UniProt Q9Y4D2)
- Sequence (Q9Y4D2 whole entry): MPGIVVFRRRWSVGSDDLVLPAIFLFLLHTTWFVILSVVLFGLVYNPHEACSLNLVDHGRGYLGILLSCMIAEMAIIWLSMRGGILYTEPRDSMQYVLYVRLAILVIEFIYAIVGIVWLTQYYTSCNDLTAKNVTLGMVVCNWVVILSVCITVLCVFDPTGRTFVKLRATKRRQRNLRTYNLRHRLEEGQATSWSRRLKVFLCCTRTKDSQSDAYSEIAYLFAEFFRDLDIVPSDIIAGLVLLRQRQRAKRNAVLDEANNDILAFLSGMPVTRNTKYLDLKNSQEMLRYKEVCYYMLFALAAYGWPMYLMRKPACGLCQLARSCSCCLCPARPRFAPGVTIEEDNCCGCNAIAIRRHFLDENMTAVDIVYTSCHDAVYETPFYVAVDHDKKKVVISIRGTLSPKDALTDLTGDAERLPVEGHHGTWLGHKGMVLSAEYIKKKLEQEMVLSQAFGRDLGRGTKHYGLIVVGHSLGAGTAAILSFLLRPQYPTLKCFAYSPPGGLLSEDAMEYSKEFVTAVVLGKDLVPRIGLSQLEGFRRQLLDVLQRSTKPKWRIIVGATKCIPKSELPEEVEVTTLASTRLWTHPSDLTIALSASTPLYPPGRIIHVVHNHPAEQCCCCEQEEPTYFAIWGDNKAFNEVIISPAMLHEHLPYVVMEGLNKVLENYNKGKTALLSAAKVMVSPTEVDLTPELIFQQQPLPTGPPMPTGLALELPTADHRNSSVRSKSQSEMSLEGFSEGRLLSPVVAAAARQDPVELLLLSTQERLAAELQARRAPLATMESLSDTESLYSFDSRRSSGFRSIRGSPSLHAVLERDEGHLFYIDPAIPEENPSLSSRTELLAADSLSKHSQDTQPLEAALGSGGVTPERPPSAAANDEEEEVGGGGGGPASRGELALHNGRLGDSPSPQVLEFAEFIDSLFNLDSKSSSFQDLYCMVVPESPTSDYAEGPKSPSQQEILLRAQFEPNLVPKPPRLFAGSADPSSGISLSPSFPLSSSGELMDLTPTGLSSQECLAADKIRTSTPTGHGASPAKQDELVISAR
- test.parameters: 10 μM; 0.05% Triton X-100
recorded.endpoint: hDAGLα inhibition at 10 μM (0.05% Triton X-100) (%), FRET

compound	scale.unit	observed.measurement
CCCCCCCCCCC[C@@H](C[C@@H]1OC(=O)[C@H]1CCCCCC)OC(=O)[C@H](NC=O)[C@@H](C)CC	%	98
CCCCCCCCCCC[C@@H](C[C@@H]1OC(=O)[C@H]1CCCCCC)OC(=O)[C@@H](NC=O)[C@@H](C)CC	%	99
CCCCCCCCCCC[C@@H](C[C@@H]1OC(=O)[C@H]1CCCCCC)OC(=O)[C@@H](NC=O)[C@H](C)CC	%	99
CCCCCCCCCCCC(CC1OC(=O)C1CCCCCC)OC(=O)C(NC=O)C(C)CC (stereo not shown)	%	98
